- experimental_system: purified human Factor XIa (Homo sapiens (Human))
- Sequence (P03951 388-625): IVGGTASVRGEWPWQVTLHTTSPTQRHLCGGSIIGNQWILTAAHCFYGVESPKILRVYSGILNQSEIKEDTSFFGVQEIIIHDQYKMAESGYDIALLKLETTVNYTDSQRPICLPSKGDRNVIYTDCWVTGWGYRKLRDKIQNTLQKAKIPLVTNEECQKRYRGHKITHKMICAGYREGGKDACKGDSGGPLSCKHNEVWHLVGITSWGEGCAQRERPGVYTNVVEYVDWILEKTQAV
- Sequence (P03951 19-387 partner): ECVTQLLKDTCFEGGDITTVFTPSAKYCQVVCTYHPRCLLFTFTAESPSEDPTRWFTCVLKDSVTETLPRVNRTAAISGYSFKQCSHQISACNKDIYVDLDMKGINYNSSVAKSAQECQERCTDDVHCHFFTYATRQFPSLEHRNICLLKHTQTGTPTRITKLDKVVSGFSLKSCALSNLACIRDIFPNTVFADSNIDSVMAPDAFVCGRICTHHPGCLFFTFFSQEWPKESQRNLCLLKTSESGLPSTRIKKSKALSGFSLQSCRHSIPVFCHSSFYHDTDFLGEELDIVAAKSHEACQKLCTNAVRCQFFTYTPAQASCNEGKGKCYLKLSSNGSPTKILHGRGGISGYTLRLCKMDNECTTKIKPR
- assay_explanation: Factor XIa Assay
- Assay type: biochemical
- experimental_parameters: substrate Z-Gly-Pro-Arg-AFC 100 μM, 40 pM enzyme, pH 7.4; read-out: FXIa IC50
pIC50: −log10 of the molar value.
Classification field: enter met for pIC50 values not below 8, not met for values below it.

Req: State whether the measured pIC50 reaches 8, counting equality as reaching it, for O=C(O)c1cccc(-c2cc(F)cc(C(Cc3ccccc3)c3ccc(-c4cc(Cl)ccc4-n4cnnn4)c[n+]3[O-])c2)c1 (racemic)
Resp: met

Req: Can you check `CC(C)(C)OC(=O)N1CCC(c2cccc([C@@H](Cc3ccccc3)c3ccc(-c4cc(Cl)ccc4-n4cnnn4)c[n+]3[O-])c2)CC1` next?
Resp: not met

Req: Can you check `O=C(O)c1cccc(-c2cc(F)cc([C@H](Cc3ccccc3)c3ccc(-c4cc(Cl)ccc4-n4cnnn4)c[n+]3[O-])c2)c1` next?
Resp: met
